Provide the reported pEC50 of each item.
# SYSTEM TESTED: FXR receptor (Homo sapiens, UniProt Q96RI1)
# Construct: Prepared 2× GST-labeled FXR-LBD/anti-GST Eu mixture to the required volume, the concentration of GST-FXR-LBD was 6 nM
# Sequence (Q96RI1 262-486 limits assumed): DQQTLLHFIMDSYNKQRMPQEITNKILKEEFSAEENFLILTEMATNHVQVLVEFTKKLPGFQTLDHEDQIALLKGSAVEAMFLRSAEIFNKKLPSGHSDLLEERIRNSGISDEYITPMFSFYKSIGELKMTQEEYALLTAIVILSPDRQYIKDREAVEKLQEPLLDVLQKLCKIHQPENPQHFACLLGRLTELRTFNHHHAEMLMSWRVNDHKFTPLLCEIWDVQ
# Sequence (Q15788 676-700 partner limits assumed): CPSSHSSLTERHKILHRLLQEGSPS
# METHOD SUMMARY: FXR receptor binding activity assay (TR-FRET; GST-FXR-LBD / SRC1 fragment)
# DETAILS: FXR-LBD binding to SRC1 fragment, agonist rate
Scale explanation: pEC50 corresponds to minus log10 of a concentration expressed in moles per litre.

q: Recorded pEC50 for CC[C@H]1[C@@H](O)C2C3CCC([C@H](C)CCc4n[nH]c(=O)o4)[C@@]3(C)CCC2[C@@]2(C)CC[C@@H](O)C[C@@H]12 (stereo partly drawn) [Example 10] , please?
a: 7.21

q: Now the same for CC[C@H]1[C@@H](O)C2C3CCC([C@H](C)CCC(=O)NCP(=O)(O)O)[C@@]3(C)CCC2[C@@]2(C)CC[C@@H](O)C[C@@H]12 (stereo partly drawn) [Example 6]
a: 5.90

q: Follow-up item: CC[C@H]1[C@@H](O)C2C3CCC([C@H](C)CCC(=O)NO)[C@@]3(C)CCC2[C@@]2(C)CC[C@@H](O)C[C@@H]12 (stereo partly drawn) [Example 2]
a: 6.78

q: Similarly, CC[C@H]1[C@@H](O)C2C3CCC([C@H](C)CCC(=O)NCS(=O)(=O)O)[C@@]3(C)CCC2[C@@]2(C)CC[C@@H](O)C[C@@H]12 (stereo partly drawn) [Example 5] ?
a: 7.51

q: Further, for CCOC(=O)c1nnc(CC[C@@H](C)C2CCC3C4C(CC[C@@]32C)[C@@]2(C)CC[C@@H](O)C[C@H]2[C@@H](CC)[C@H]4O)o1 (stereo partly drawn) [Example 13-ii] ?
a: 7.15

q: Try the molecule CC[C@H]1[C@@H](O)C2C3CCC([C@H](C)CC4SC(=O)NC4=O)[C@@]3(C)CCC2[C@@]2(C)CC[C@@H](O)C[C@@H]12 (single isomer, unassigned) [Example 14-α]
a: 7.89

q: Field entry: CC[C@H]1[C@@H](O)C2C3CCC([C@H](C)CC4SC(=O)NC4=O)[C@@]3(C)CCC2[C@@]2(C)CC[C@@H](O)C[C@@H]12 (single isomer, unassigned) [Example 14-β]
a: 8.40

q: Now this one: CC[C@@H]1[C@@H]2[C@@H](F)[C@H](O)CC[C@]2(C)C2CC[C@@]3(C)C(CCC3[C@H](C)CCC(=O)O)C2[C@@H]1O (stereo partly drawn) [Example 1]
a: 6.67

q: And for CC[C@H]1[C@@H](O)C2C3CCC([C@H](C)CCC(=O)NCCP(=O)(O)O)[C@@]3(C)CCC2[C@@]2(C)CC[C@@H](O)C[C@@H]12 (stereo partly drawn) [Example 7] ?
a: 6.26

q: What about this molecule? CC[C@H]1[C@@H](O)C2C3CCC([C@H](C)CCC(=O)NOC)[C@@]3(C)CCC2[C@@]2(C)CC[C@@H](O)C[C@@H]12 (stereo partly drawn) [Example 4]
a: 7.27

q: And CC[C@H]1[C@@H](O)C2C3CCC([C@H](C)CCc4nnc[nH]4)[C@@]3(C)CCC2[C@@]2(C)CC[C@@H](O)C[C@@H]12 (stereo partly drawn) [Example 11] ?
a: 6.44

q: Likewise for CC[C@H]1[C@@H](O)C2C3CCC([C@H](C)CCc4noc(=O)[nH]4)[C@@]3(C)CCC2[C@@]2(C)CC[C@@H](O)C[C@@H]12 (stereo partly drawn) [Example 12] ?
a: 7.28
